- TEST SUMMARY: Acute intravenous toxicity in mice
- PARTICULARS: mouse, in vivo, triethanolamine salt (T), 2% w/v test solution
ASSAY ENDPOINT: LD50 (mg/kg)
Response body: numeric value in mg/kg, unit text excluded.

Below, 6 compounds whose answers are already recorded.
SMILES DATA	LD50 / mg/kg
Cc1cc(C(=O)Nc2nnn[nH]2)c(O)c(C(=O)c2ccccc2)c1	350
CC(=O)c1ccc(O)c(C(=O)Nc2nnn[nH]2)c1	645
CCOc1cccc(C(=O)Nc2nnn[nH]2)c1O	560
CCCOc1cccc(C(=O)Nc2nnn[nH]2)c1O	480
CCCc1cc(C(C)=O)c(O)c(C(=O)Nc2nnn[nH]2)c1	250
CC(=O)c1cccc(C(=O)Nc2nnn[nH]2)c1O	500

For the compound CC(=O)c1cc(Cl)cc(C(=O)Nc2nnn[nH]2)c1O , give its reported LD50. 245

Identify the reported LD50 for the following entry. O=C(Nc1nnn[nH]1)c1ccc(Cl)cc1O 260

Output LD50 of CC(=O)c1c(C)c(C)cc(C(=O)Nc2nnn[nH]2)c1O 870
